# system.name: HRas^G12V (Homo sapiens (Human), UniProt P01112, G12V)
# Sequence (P01112 1-166 G12V): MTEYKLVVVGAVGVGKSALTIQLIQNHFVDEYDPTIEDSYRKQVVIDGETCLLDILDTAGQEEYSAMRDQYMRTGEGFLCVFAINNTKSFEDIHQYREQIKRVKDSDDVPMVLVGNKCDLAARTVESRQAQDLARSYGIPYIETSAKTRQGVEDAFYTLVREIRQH
# experiment.description: Dissociation constant by NMR (1H/15N Fast-HSQC, 1H 1D protein-observed)
# Format: binding
# Description: All NMR experiments were collected using 3 mm NMR tubes on a 600 MHz Bruker Avance III spectrometer equipped with a QCI helium cryoprobe and a SampleJet sample changer. […] ^1H/^15N Fast-HSQC experiments (Mori et al., Journal of Magnetic Resonance, Series B, Volume 108, Issue 1, July 1995, Pages 94-98) were recorded at a protein concentration of 50-100 μM. […] ^1H 1D protein-observed experiments were recorded with 15-50 μM protein. […]

| smiles.string | Kd [mM] |
| --- | --- |
| O=C1CCN(C(=O)Cc2c[nH]c3cc(F)ccc23)CC1 | 6.43 |
